Here the recorded melting point is given for each entry.

>>> print(df.to_string())
                               input_smiles      obs_value
0  COc1cn(-c2ccc(OC(F)(F)F)cc2F)nc(-c2ccnn2-c2ccccc2)c1=O  117 to 118 °C
1        CCCc1nc2c(N)nc3cc(O)ccc3c2n1CC(C)C       > 265 °C
2     O=S(=O)(OCC(F)(F)C(F)F)c1ccc2ccccc2c1        89.6 °C

// "OCc1ccc(Cl)cc1Cc1ccccc1" : melting point value = 46.5 to 49 °C

// "C#CCOc1cc(C(=O)OC)ccc1F" : melting point value = 60.5 to 61.5 °C

// "COC(=O)NN(C(=O)Cl)c1ccccc1OCCSC" : melting point value = 55 to 57 °C

###

Here the recorded melting point is given for each entry.

// COc1ccc(N2CCN(C(=O)C(c3ccccc3)n3cnc4[nH]ncc4c3=S)CC2)cc1 (centres undefined) : melting point value = 114 to 118 °C

// "CN1CCC(c2cc3c(F)cccc3c(=O)[nH]2)CC1" : melting point value = 220 to 222 °C

// "c1ccc(C(c2ccccc2)N2CC(n3ccnn3)C2)cc1" : melting point value = 167 to 168 °C

###

Here the recorded melting point is given for each entry.

>>> print(df.to_string())
                                   compound      obs_value
0   O=C(CCCCOc1ccc(C2=NCCO2)cc1)c1ccc(Cl)s1  143 to 144 °C
1      CCc1cnc(N2CCN(C(=O)OC(C)(C)C)CC2)nc1    67 to 68 °C
2  CNc1nc(-c2ccc(-c3ccccc3)s2)c2cc(OC)c(OC)cc2n1  201 to 203 °C
3  CNC(=O)C1CC(c2ccc(-c3ccc(N4C[C@H](Cn5ccnn5)OC4=O)cc3F)cn2)=NO1 (stereo not given in full)  185 to 195 °C
4    CN(CCNc1ccc2ncc(Br)n2n1)C(=O)OC(C)(C)C  128 to 129 °C

// "CCCc1c(OCCCCCC(=O)NCCCCc2cncnc2)ccc(C(C)=O)c1O" : melting point value = 87 to 89 °C

// "CCOC(=O)c1cn(C)c2cc(F)ccc2c1=O" : melting point value = 164 to 166 °C

// CN1CCC(NC(c2cccc(C#CCCCCN)c2)c2nc3ccccc3[nH]2)CC1 (stereo not given) : melting point value = 79 °C

// "OCC1=CC=C(CO)SS1" : melting point value = 64 to 66 °C

// "COCCN(CCOC)C(=O)c1cccc(NC(=O)Oc2ccccc2)c1" : melting point value = 116 to 118 °C

###

Here the recorded melting point is given for each entry.

Some solved cases for reference:
>>> print(df.to_string())
                                   molecule  measurement_type      obs_value
0               Cc1cc(-c2ccc(O)cc2)ccc1C=NO     melting point  195 to 197 °C
1                 CCCCCCCCCCCCCCCCc1ccccc1O     melting point    54 to 55 °C
2        c1nnc2c3c(c(NCCCN4CCCC4)nn12)CCCC3     melting point  169 to 171 °C
3  COc1cc(Cc2cnc(N)nc2N)cc(-c2ccc(C=O)cc2)c1OC     melting point          99 °C
4  O=C(Nc1ccc(CNc2nc(Cl)nc3cc(I)ccc23)cc1)c1ccc(Cl)nc1     melting point         315 °C

// switching to the query molecule
// COC(=O)C(Br)c1ccc2c(c1)OCO2 (stereo unspecified) : melting point value = 39 to 41 °C
